system: HCC-15; assay: relative viability (nuclei count vs DMSO), 5 days (fraction); higher = more cells survive; conditions: first compound 0.08 µM
hey, just use fulfilled if measured relative viability is less than 0.6, otherwise not fulfilled

- Compound: "CCCCCCCCCCCC1=C(O)C(=O)C=C(O)C1=O [Embelin] + N=C(N)NC(=N)NCCc1ccccc1 [Phenformin] (partner 250 µM)"
  Class Name: "fulfilled"

Asked: # check: relative viability < 0.6 for CCCCCCCCCCCC1=C(O)C(=O)C=C(O)C1=O [Embelin] + Nc1ncn([C@H]2C[C@H](O)[C@@H](CO)O2)c(=O)n1 [Decitabine] (partner 2 µM)
Given back: not fulfilled

Asked: Record: CCCCCCCCCCCC1=C(O)C(=O)C=C(O)C1=O [Embelin] + CC(=O)c1c(C)c2cnc(Nc3ccc(N4CCNCC4)cn3)nc2n(C2CCCC2)c1=O [Palbociclib] (partner 0.5 µM)
Given back: not fulfilled

Asked: Proceed to CCCCCCCCCCCC1=C(O)C(=O)C=C(O)C1=O [Embelin] + CCNC(=O)c1noc(-c2cc(C(C)C)c(O)cc2O)c1-c1ccc(CN2CCOCC2)cc1 [Luminespib] (partner 0.01 µM)
Given back: fulfilled

* * *

The following compounds are shown together with reported relative viability values.
tested on: COR-L 105; assay: relative viability (nuclei count vs DMSO), 5 days (fraction); higher = more cells survive; conditions: first compound 4 µM
Reply with just the number.

Record excerpt, results attached:
- Compound: "Clc1ccc(Nc2nnc(Cc3ccncc3)c3ccccc23)cc1 [Vatalanib] + C[C@@H](Oc1cc(-c2cnn(C3CCNCC3)c2)cnc1N)c1c(Cl)ccc(F)c1Cl [Crizotinib] (partner 1 µM)"
  Assay System: "COR-L 105"
  relative viability: 0.827
- Compound: "Clc1ccc(Nc2nnc(Cc3ccncc3)c3ccccc23)cc1 [Vatalanib] + CS(=O)(=O)N1CCN(Cc2cc3nc(-c4cccc5[nH]ncc45)nc(N4CCOCC4)c3s2)CC1 [Pictilisib] (partner 1 µM)"
  Assay System: "COR-L 105"
  relative viability: 0.377
- Compound: "Clc1ccc(Nc2nnc(Cc3ccncc3)c3ccccc23)cc1 [Vatalanib] + COc1cc2c(Oc3ccc(NC(=O)C4(C(=O)Nc5ccc(F)cc5)CC4)cc3F)ccnc2cc1OCCCN1CCOCC1 [Foretinib] (partner 0.25 µM)"
  Assay System: "COR-L 105"
  relative viability: 1.12
- Compound: "Clc1ccc(Nc2nnc(Cc3ccncc3)c3ccccc23)cc1 [Vatalanib] + Cc1nc(NC(=O)N2CCC[C@H]2C(N)=O)sc1-c1ccnc(C(C)(C)C(F)(F)F)c1 [Alpelisib] (partner 2 µM)"
  Assay System: "COR-L 105"
  relative viability: 1.04
- Compound: "COc1cc(N2CCC(C(N)=O)CC2)ccc1Nc1nc(N)c(Cl)c(Nc2ccccc2S(=O)(=O)C(C)C)n1 [HG-5-88-01] + CS(=O)(=O)N1CCN(Cc2cc3nc(-c4cccc5[nH]ncc45)nc(N4CCOCC4)c3s2)CC1 [Pictilisib] (partner 1 µM)"
  Assay System: "COR-L 105"
  relative viability: 0.342
- Compound: "Clc1ccc(Nc2nnc(Cc3ccncc3)c3ccccc23)cc1 [Vatalanib] + CCNC(=O)c1noc(-c2cc(C(C)C)c(O)cc2O)c1-c1ccc(CN2CCOCC2)cc1 [Luminespib] (partner 0.01 µM)"
  Assay System: "COR-L 105"
  relative viability: 0.74
- Compound: "COc1cc(N2CCC(C(N)=O)CC2)ccc1Nc1nc(N)c(Cl)c(Nc2ccccc2S(=O)(=O)C(C)C)n1 [HG-5-88-01] + CC(=O)c1c(C)c2cnc(Nc3ccc(N4CCNCC4)cn3)nc2n(C2CCCC2)c1=O [Palbociclib] (partner 0.5 µM)"
  Assay System: "COR-L 105"
  relative viability: 0.394
- Compound: "C[C@@H]1CN(CC(=O)Nc2ccc3c(c2)Cc2cccc(-c4cc(=O)cc(N5CCOCC5)o4)c2S3)C[C@H](C)O1 + Cc1nc(NC(=O)N2CCC[C@H]2C(N)=O)sc1-c1ccnc(C(C)(C)C(F)(F)F)c1 [Alpelisib] (partner 2 µM)"
  Assay System: "COR-L 105"
  relative viability: 0.896

Kindly review the next compound as well.
Asked: Find the recorded relative viability belonging to Clc1ccc(Nc2nnc(Cc3ccncc3)c3ccccc23)cc1 [Vatalanib] + CC(=O)c1c(C)c2cnc(Nc3ccc(N4CCNCC4)cn3)nc2n(C2CCCC2)c1=O [Palbociclib] (partner 0.5 µM) and report it.
Given back: 0.396
